Sourced from paper PMC7059199

# Experimental Details: Pharmacokinetic profile in mice
# Assay type: in vivo
# Condition Notes: mouse, in vivo, oral (ig) 10 mg/kg
Recorded Metric: half-life

Query string: Which measured half-life value corresponds to CCCCCCCC(OCC(=O)O)c1ccc(Cl)cc1 (stereo not shown) [VSP-77] ?
Result string: 1.25 h

----------
# Experimental Details: Pharmacokinetic profile in mice
# Assay type: in vivo
# Condition Notes: mouse, in vivo, intravenous 5 mg/kg
Recorded Metric: MRT (h)
Reply with just the number (in h).

Query string: Need MRT of CCCCCCCC(OCC(=O)O)c1ccc(Cl)cc1 (stereo not shown) , thanks.
Result string: 1.11

----------
# Experimental Details: Pharmacokinetic profile in mice
# Type: in vivo
# Condition Notes: mouse, in vivo, intravenous 5 mg/kg
# Description: VSP-77 was further evaluated for its preliminary pharmacokinetic profile in mice following oral (10 mg kg^–1) and intravenous (5 mg kg^–1) administration (Table S2 ^†).
Recorded Metric: half-life (h)
Reply with just the number (in h).

Query string: Which half-life value is on record for CCCCCCCC(OCC(=O)O)c1ccc(Cl)cc1 (stereo not shown) ?
Result string: 1.07
